Biological target: CCR2 (Homo sapiens)
Sequence (P41597 1-360 isoform P41597-2): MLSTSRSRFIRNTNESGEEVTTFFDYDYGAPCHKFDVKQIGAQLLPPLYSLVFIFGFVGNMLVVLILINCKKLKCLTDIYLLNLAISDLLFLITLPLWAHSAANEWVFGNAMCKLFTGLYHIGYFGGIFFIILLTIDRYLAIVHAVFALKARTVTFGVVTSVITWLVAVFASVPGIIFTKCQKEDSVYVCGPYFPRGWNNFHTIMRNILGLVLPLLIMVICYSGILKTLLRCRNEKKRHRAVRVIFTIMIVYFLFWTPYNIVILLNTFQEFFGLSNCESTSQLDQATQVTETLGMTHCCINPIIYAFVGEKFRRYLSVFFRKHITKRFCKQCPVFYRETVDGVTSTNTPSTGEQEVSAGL
Experiment: MCP-1 Receptor Binding Assay in THP-1 Cells
Conditions: THP-1 cells, 0.5 nM 125I labeled MCP-1, 2 hours at 30° C.; read-out: Inhibition of MCP-1 Binding IC50
Listed next: entries and their corresponding IC50.
Number only, in µM; omit the unit.

// solved cases for IC50 follow
> print(dat)
                                   compound  numeric.value
1  COc1ccc(C2CCN(CC(CO)C3CCN(C(=O)/C=C/c4ccc(Cl)c(Cl)c4)CC3)CC2)cc1 (stereo not drawn) [Compound 43]           0.59
2  Cc1cccc(/C=C/C(=O)N2CCC(O)(C(O)CN3CCC(c4c[nH]c5ccc(N6CCOCC6)cc45)CC3)CC2)c1 (stereo not drawn) [Compound 174]            3.2
3  Cc1cccc(/C=C/C(=O)N2CCC(C(O)CN3CCC(c4nc5ccccc5o4)CC3)CC2)c1 (stereo not drawn) [Compound 47]            3.9

Short answer for O=C(/C=C/c1cc(F)cc(F)c1)N1CCC(O)(C(O)CN2CCC(c3ccc(Cl)cc3)CC2)CC1 (stereo not drawn) [Compound 164] : IC50 was 0.05

Short answer for O=C(OCc1ccccc1)N1CCC(O)(C(O)CN2CCC(c3c[nH]c4ccccc34)CC2)CC1 (stereo not drawn) [Compound 69] : IC50 was 0.95

Short answer for O=C(O)C(CC1CCN(C(=O)C=Cc2ccc(Cl)c(Cl)c2)CC1)N1CCC(c2c[nH]c3ccccc23)CC1 (stereo not drawn) [Compound 60] : IC50 was 0.31

Short answer for O=C(/C=C/c1ccc(Cl)cc1)N1CCC(O)(C(O)CN2CCC(c3c[nH]c4ccc(N5CCOCC5)cc34)CC2)CC1 (stereo not drawn) [Compound 170] : IC50 was 4.4

* * *

system: MCP-1 induced chemotaxis of THP-1 cells; assay: MCP-1 Induced Chemotaxis in THP-1 Cells; type: cell-based; settings: Homo sapiens, MCP-1 0.01 μg/mL, 3 hours at 37° C., read-out: Inhibition of MCP-1 Induced Chemotaxis IC50
Listed next: entries and their corresponding pIC50.
Worth noting: pIC50 values are minus log10 of concentrations stated in mol/L.

> print(dat)
                                   compound  attribute.measured  numeric.value
1  O=C(/C=C/c1cc(F)cc(F)c1)N1CCC(C(O)CN2CCC(c3c[nH]c4ncccc34)CC2)CC1 (centres unmarked) [Compound 20]               pIC50           7.70
2  COc1ccc(C2CCN(CC(O)C3(O)CCN(C(=O)/C=C/c4cc(F)cc(F)c4)CC3)CC2)cc1 (centres unmarked) [Compound 94]               pIC50           7.00
3  COc1ccc(C2CCN(CC(O)C3CCN(C(=O)Nc4ccc(Cl)c(Cl)c4)CC3)CC2)cc1 (centres unmarked) [Compound 15]               pIC50           7.70
4  O=C(/C=C/c1cc(F)cc(F)c1)N1CCC(C(O)CN2CCC(c3cc[nH]n3)CC2)CC1 (centres unmarked) [Compound 34]               pIC50           6.08
5  O=C(/C=C/c1cc(F)cc(F)c1)N1CCC(O)(C(O)CN2CCC(c3c[nH]c4ccc(F)cc34)CC2)CC1 (centres unmarked) [Compound 157]               pIC50           6.92
6  COc1ccc(C2CCN(CC(O)C3(O)CCN(C(=O)/C=C/c4ccc(F)c(F)c4)CC3)CC2)cc1 (centres unmarked) [Compound 93]               pIC50           6.92

Short answer for COc1ccc2[nH]cc(C3CCN(CC(O)C4CCN(C(=O)/C=C/c5cc(F)cc(F)c5)CC4)CC3)c2c1 (centres unmarked) [Compound 26] : pIC50 was 7.70

Short answer for O=C(/C=C/c1cc(Cl)cc(Cl)c1)N1CCC(O)(C(O)CN2CCC(c3c[nH]c4ccc(N5CCOCC5)cc34)CC2)CC1 (centres unmarked) [Compound 151] : pIC50 was 6.80
